B1: glmS ribozyme (parent)
chain: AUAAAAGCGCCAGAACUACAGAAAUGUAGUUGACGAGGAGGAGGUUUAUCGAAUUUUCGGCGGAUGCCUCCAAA

Variants of: B1
Procedure Details: self-cleavage kobs at 40 uM GlcN6P; higher = faster cleavage; RNA array
Conditions: with glucosamine-6-phosphate
Fewer inactive variants are shown than the library holds.
Please go through the items and note down their self-cleavage kobs at 40 uM GlcN6P.

Q: Requested field: self-cleavage kobs at 40 uM GlcN6P. Item: A6G A48C
Ans: < 1e-05 s⁻¹

Q: Requested field: self-cleavage kobs at 40 uM GlcN6P. Item: A52C G60U
Ans: < 1e-05 s⁻¹

Q: Requested field: self-cleavage kobs at 40 uM GlcN6P. Item: G43A U57A
Ans: < 1e-05 s⁻¹

Q: Requested field: self-cleavage kobs at 40 uM GlcN6P. Item: G35A G40C
Ans: < 1e-05 s⁻¹

Q: Requested field: self-cleavage kobs at 40 uM GlcN6P. Item: G13C U57G
Ans: < 1e-05 s⁻¹

Q: Requested field: self-cleavage kobs at 40 uM GlcN6P. Item: G29U G41A C71G
Ans: < 1e-05 s⁻¹

Q: Requested field: self-cleavage kobs at 40 uM GlcN6P. Item: A6G A33G A48G A64U
Ans: < 1e-05 s⁻¹

Q: Requested field: self-cleavage kobs at 40 uM GlcN6P. Item: U31C G37U
Ans: < 1e-05 s⁻¹

Q: Requested field: self-cleavage kobs at 40 uM GlcN6P. Item: A12G G32A
Ans: < 1e-05 s⁻¹

Q: Requested field: self-cleavage kobs at 40 uM GlcN6P. Item: A39U U47C
Ans: 0.000213 s⁻¹

Q: Requested field: self-cleavage kobs at 40 uM GlcN6P. Item: G40C A64C
Ans: < 1e-05 s⁻¹

Q: Requested field: self-cleavage kobs at 40 uM GlcN6P. Item: C50U U65G
Ans: < 1e-05 s⁻¹

Q: Requested field: self-cleavage kobs at 40 uM GlcN6P. Item: A15G G37U
Ans: < 1e-05 s⁻¹

Q: Requested field: self-cleavage kobs at 40 uM GlcN6P. Item: U30G G59U
Ans: < 1e-05 s⁻¹

Q: Requested field: self-cleavage kobs at 40 uM GlcN6P. Item: A14C A53C G62C C68G
Ans: < 1e-05 s⁻¹

Q: Requested field: self-cleavage kobs at 40 uM GlcN6P. Item: C8U G63U
Ans: < 1e-05 s⁻¹

Q: Requested field: self-cleavage kobs at 40 uM GlcN6P. Item: A33U C50A C68G
Ans: 4.36e-05 s⁻¹

Q: Requested field: self-cleavage kobs at 40 uM GlcN6P. Item: C10G C34A A48C U49C
Ans: < 1e-05 s⁻¹

Q: Requested field: self-cleavage kobs at 40 uM GlcN6P. Item: C10U G40U A48U
Ans: < 1e-05 s⁻¹

Q: Requested field: self-cleavage kobs at 40 uM GlcN6P. Item: C70G
Ans: 0.000246 s⁻¹

Q: Requested field: self-cleavage kobs at 40 uM GlcN6P. Item: G44A A48U
Ans: < 1e-05 s⁻¹

Q: Requested field: self-cleavage kobs at 40 uM GlcN6P. Item: G40C U54C
Ans: 8.26e-05 s⁻¹

Q: Requested field: self-cleavage kobs at 40 uM GlcN6P. Item: C16U U31C A36G G41C
Ans: < 1e-05 s⁻¹

Q: Requested field: self-cleavage kobs at 40 uM GlcN6P. Item: A6G A12U U65G
Ans: < 1e-05 s⁻¹

Q: Requested field: self-cleavage kobs at 40 uM GlcN6P. Item: A42G G63C
Ans: < 1e-05 s⁻¹

Q: Requested field: self-cleavage kobs at 40 uM GlcN6P. Item: A33G A48G C71U
Ans: < 1e-05 s⁻¹

Q: Requested field: self-cleavage kobs at 40 uM GlcN6P. Item: G9U G38A U56C G63U
Ans: < 1e-05 s⁻¹

Q: Requested field: self-cleavage kobs at 40 uM GlcN6P. Item: U31G U54G
Ans: 0.000298 s⁻¹

Q: Requested field: self-cleavage kobs at 40 uM GlcN6P. Item: C11U A15C U46A
Ans: < 1e-05 s⁻¹

Q: Requested field: self-cleavage kobs at 40 uM GlcN6P. Item: A6G C10G U31G U55A
Ans: < 1e-05 s⁻¹

Q: Requested field: self-cleavage kobs at 40 uM GlcN6P. Item: A39C A64G
Ans: 0.000169 s⁻¹

Q: Requested field: self-cleavage kobs at 40 uM GlcN6P. Item: C10G C58U
Ans: < 1e-05 s⁻¹

Q: Requested field: self-cleavage kobs at 40 uM GlcN6P. Item: G9U G51U
Ans: < 1e-05 s⁻¹

Q: Requested field: self-cleavage kobs at 40 uM GlcN6P. Item: G13A U46C C67A
Ans: < 1e-05 s⁻¹

Q: Requested field: self-cleavage kobs at 40 uM GlcN6P. Item: G35C A48C
Ans: < 1e-05 s⁻¹

Q: Requested field: self-cleavage kobs at 40 uM GlcN6P. Item: U57A C61U
Ans: < 1e-05 s⁻¹

Q: Requested field: self-cleavage kobs at 40 uM GlcN6P. Item: C10U U45G G51U A64U
Ans: < 1e-05 s⁻¹

Q: Requested field: self-cleavage kobs at 40 uM GlcN6P. Item: G41C A48U
Ans: < 1e-05 s⁻¹

Q: Requested field: self-cleavage kobs at 40 uM GlcN6P. Item: G13C G38A C58U
Ans: < 1e-05 s⁻¹

Q: Requested field: self-cleavage kobs at 40 uM GlcN6P. Item: C8G U30A
Ans: < 1e-05 s⁻¹

Q: Requested field: self-cleavage kobs at 40 uM GlcN6P. Item: G35U U46G
Ans: < 1e-05 s⁻¹

Q: Requested field: self-cleavage kobs at 40 uM GlcN6P. Item: A14U A15C A33C C70G
Ans: < 1e-05 s⁻¹

Q: Requested field: self-cleavage kobs at 40 uM GlcN6P. Item: A36U U65G
Ans: < 1e-05 s⁻¹

Q: Requested field: self-cleavage kobs at 40 uM GlcN6P. Item: A39G U46A
Ans: 0.000116 s⁻¹

Q: Requested field: self-cleavage kobs at 40 uM GlcN6P. Item: A36C A48C U56A
Ans: < 1e-05 s⁻¹

Q: Requested field: self-cleavage kobs at 40 uM GlcN6P. Item: A53G U69A
Ans: 0.000147 s⁻¹

Origin of values: the supplement of paper PMC7125110
